The values you see were collected from ChEMBL document CHEMBL5050844.

fold change (FC): recorded values
Test: Induction of anti-CD3/CD28 antibodies-stimulated human T cell activation at 0.3 uM assessed fold increase in IL-2 secretion measured by ELISA assay
Format: functional, T cell line
READOUT TYPE: fold change (FC)

CN1CCN(c2cc3c(c(C(F)(F)F)c2)CN(c2cccc(C4(Cc5nncn5C)COC4)c2)C3=O)CC12CC2 : 2.51
C[C@@H](c1cccc(N2Cc3c(cccc3C(F)(F)F)C2=O)c1)[C@H](F)c1nncn1C (racemic) : 1.01
C[C@H](Cc1nncn1C)c1cccc(NC(=O)c2cn3ccnc3cn2)c1 : 1.01
C[C@H](O)CNc1cc([C@H](C)Cc2nncn2C)cc(N2Cc3c(cccc3C(F)(F)F)C2=O)n1 : 1.01
C[C@H](Sc1nncn1C)c1ccnc(NC(=O)c2cc3c(C(F)(F)F)cccc3[nH]2)c1 : 1.01

----------
fold change (FC): recorded values
Assay: Induction of anti-CD3/CD28 antibodies-stimulated human T cell activation at 1 uM assessed fold increase in IL-2 secretion measured by ELISA assay
Type: functional, T cell line
READOUT TYPE: fold change (FC)

Cn1cnnc1CC1(c2cccc(N3Cc4c(cc(C5CN6CCC5CC6)cc4C(F)(F)F)C3=O)c2)COC1 (stereo not given) : 5
Cn1cnnc1CC1(c2cccc(NC(=O)c3cc(Cn4ccnn4)nc(C4CC4)n3)c2)COC1 : 2.51
Cc1ccc(C(=O)Nc2cccc([C@H](C)Sc3nncn3C)c2)nc1C : 2.51
C[C@H](Cc1nncn1C)c1cccc(NC(=O)c2cc3cc(N4CCN(C)C(=O)C4)ccc3cn2)c1.O=C(O)C(F)(F)F : 5
C[C@@H](c1cccc(N2Cc3c(cccc3C(F)(F)F)C2=O)c1)[C@H](F)c1nncn1C (racemic) : 1.01
C[C@@H](c1cccc(N2Cc3c(cccc3C(F)(F)F)C2=O)c1)C(F)(F)c1nncn1C : 1.01
Cn1cnnc1CC1(c2cccc(N3Cc4c(cc(OC5CNC5)cc4C(F)(F)F)C3=O)c2)COC1 : 1.01
Cn1cnnc1C(F)(F)[C@](C)(F)c1cccc(N2Cc3c(cc(CN4CC(C#N)C4)cc3C(F)(F)F)C2=O)c1 : 2.51
C[C@H](Cc1nncn1C)c1cccc(NC(=O)c2cc(C3(O)COC3)cc(C(F)(F)F)n2)c1 : 1.01
C[C@H](Sc1nncn1C)c1cccc(NC(=O)c2cccc(C3CC3)n2)c1 : 2.51
C[C@H](Cc1nncn1C)c1cccc(NC(=O)c2cncc(C(F)(F)F)n2)c1 : 2.51
C[C@H](Sc1nncn1C)c1cccc(NC(=O)c2cc3c(Cl)cccc3[nH]2)c1 : 1.01
C[C@H](Sc1nncn1C)c1ccnc(NC(=O)c2cc(C3CC3)cc(C(F)(F)F)n2)c1 : 1.01
Cc1conc1CC(C)c1cccc(N2Cc3c(cccc3C(F)(F)F)C2=O)c1 (stereo not given) : 1.01
Cn1cnnc1CC1(c2cccc(N3Cc4c(cccc4C(F)(F)F)C3=O)c2)CC1 : 2.51
Cc1cnn2c(C(=O)Nc3cccc(C4(Cc5nncn5C)COC4)c3)cc(C(F)(F)F)nc12 : 1.01
C[C@H](Cc1nncn1C)c1cccc(N2Cc3c(cc(CN4CC[C@](C)(O)C4)cc3C(F)(F)F)C2=O)c1 : 5
Cc1nc2cc([C@H](C)Sc3nncn3C)cc(NC(=O)c3cccc(C(F)(F)F)n3)c2o1 : 5
C[C@H](Sc1nncn1C)c1cccc(NC(=O)c2cc(C(C)(C)O)c(Cl)cn2)c1 : 1.01
C[C@H](Cc1nncn1C)c1cccc(N2Cc3c(cc(CN4CC(O)C(F)(F)C4)cc3C(F)(F)F)C2=O)c1 (stereo not given in full) : 5
